Would you mind telling me the reported TGI of each entry?
system: SN12C renal; test: NCI tumour cell line growth inhibition, 48 h
Numeric only. Scale: µM

Which measured TGI value corresponds to OCc1ccc(N(Cc2ccc(F)cc2)CC2CC2)cc1Cl ?
21.8

Now the molecule CCOC(=O)c1cn2c(n1)sc1cc(C)c(C)cc12
36.8

* * *

tested on: HL-60(TB) leukemia; test: NCI tumour cell line growth inhibition, 48 h
Recorded Endpoint: GI50

Which measured GI50 value corresponds to O=c1cc(NCC(O)CN2CCOCC2)n(Cc2ccccc2)c(=O)n1Cc1ccccc1 (configuration not stated) ?
12.6 µM

Now the molecule Cn1cc(-c2ccc(-c3cn(C)c4ccc(Cl)cc34)[nH]2)c2cc(Cl)ccc21
0.438 µM

Now the molecule CCCCCCCC(=O)SCC/C=C/[C@@H]1CC(=O)NCc2cccc(n2)CN(Cc2ccc3ccccc3c2)CC(=O)N[C@@H](C(C)C)C(=O)O1
48 µM

Now the molecule CC(=O)OC1Oc2ccccc2-c2oc(=O)c(-c3ccc(F)cc3)cc21 (configuration not stated)
24.9 µM

Now the molecule Oc1cccc(-c2nc(-c3n[nH]c(=S)n3-c3ccccc3)cc3c2[nH]c2ccccc23)c1
3.38 µM

Now the molecule Cc1ccc(NC2=N[C@]34CC(=O)CC[C@]3(C)[C@H]3CC[C@]5(C)C(=O)CC[C@H]5[C@@H]3C[C@@H]4S2)c(C)c1
2.47 µM

Now the molecule C=CC(=O)N1C[C@H](COc2nc(Nc3cnn(C)c3)nc3[nH]cc(Cl)c23)[C@@H](OC)C1
3.31 µM
